# System: NIH3T3
# assay.explanation: GSK_TCAKS: pIC50 NIH 3T3 cell line viability assay using luminiscence. Tissue culture surface treated assay plates (1536-well) were used. […] The 100% cells survival control was determined exposing the host-cells to a 0.5% DMSO concentration, whereas the 100% toxicity control was achieved by seeding the cells in presence of Amphotericin B at 50uM. Plates were incubated for four days at 37C, 5% CO2. The assay readout was developed by addition of 5uL of CellTiter-Glo Reagent following the manufacturer's instructions. Luminiscence was measured using a ViewLux.
# Assay type: functional, cell-based
# condition.label: Mus musculus, NIH3T3, 96 h
Form field: IC50 (one value per entry).

>>> value_reported("Cc1ccc(NC(=O)C(C)n2nc([N+](=O)[O-])c(Br)c2C)cc1Cl (stereo not given)")
"12.6 µM"
>>> value_reported("O=c1oc2ccccc2n1C1CCN(Cc2ccccc2-c2cccnc2)CC1")
"15.8 µM"
>>> value_reported("COc1ccc(C2CC(c3ccccc3Cl)=NN2C(=O)CNC(=O)C2CCC2)cc1 (stereo not given)")
"31.6 µM"

Input line: # query: IC50 | item CCN(Cc1ccncc1)Cc1ccc(NC(=O)c2cc(-c3ccc(F)cc3)n[nH]2)cc1 | system: NIH3T3
Output line: 10 µM

Input line: # query: IC50 | item O=C(NCC1CCCCC1)c1cc(=O)c2ccccc2o1 | system: NIH3T3
Output line: 31.6 µM

---

# assay.explanation: GSK_TCAKS: pIC50 HepG2 human cell line viability assay using luminiscence. […] Seeding density was checked to ensure that new mono-layers were not more than 50% confluent at the time of harvesting. Cell suspension was added to 500 mL of the same medium at a final density of 1.2 * 10^5 cells/mL. This cell suspension was dispensed (25 uL, 3000 cells per well) into 384-well clear-bottom plates using a Multidrop Combi dispenser. Prior to addition of the cell suspension, the screening compounds (250 nL) were pre-dispensed into the plates with an Echo liquid handler. Plates were incubated for 48 h at 37C, 5% CO2. After incubation, plates equilibrated at room temperature for 30 min before proceeding to develop the luminescent signal. The signal developer, CellTiter-Glo Reagent, was allowed to equilibrate at room temperature for 30 min and added to the plates (25uL per well) using a Multidrop Combi dispenser. Plates were left for 10 min at room temperature for stabilization and then read using a ViewLux.
# Type: toxicity, cell-based
metric.name: IC50 at 48 h (µM)
Answer with a number only, understood to be in µM.

Here is how some molecules turned out for IC50 at 48 h.
>>> value_reported("NC(=O)c1ccc(-c2cccc(OCCN3CCN(C4CCCCC4)CC3)c2)cc1")
50.1
>>> value_reported("CCc1nn(-c2ncc(F)c(NC(C)C)n2)c(N)c1C1CCCCC1")
31.6
>>> value_reported("Cc1cc(NC(=O)c2ccc([N+](=O)[O-])s2)ccc1Br")
39.8
>>> value_reported("COc1ccc2nccc(NC(=O)C3(OC)CCN(CC(O)c4ccc5c(c4)OCCO5)CC3)c2n1 (stereo not given)")
39.8

With those in mind, consider the next molecule.
Input line: State the recorded IC50 at 48 h for this entry: COc1ccc(S(=O)(=O)NCc2ccc(-c3ccc(CN(C)CCO)cc3)cc2)cc1
Output line: 50.1

---

Form field: IC50 at 48 h (one value per entry).
# assay.explanation: GSK_TCAKS: pIC50 HepG2 human cell line viability assay using luminiscence. […] Seeding density was checked to ensure that new mono-layers were not more than 50% confluent at the time of harvesting. Cell suspension was added to 500 mL of the same medium at a final density of 1.2 * 10^5 cells/mL. This cell suspension was dispensed (25 uL, 3000 cells per well) into 384-well clear-bottom plates using a Multidrop Combi dispenser. Prior to addition of the cell suspension, the screening compounds (250 nL) were pre-dispensed into the plates with an Echo liquid handler. Plates were incubated for 48 h at 37C, 5% CO2. After incubation, plates equilibrated at room temperature for 30 min before proceeding to develop the luminescent signal. The signal developer, CellTiter-Glo Reagent, was allowed to equilibrate at room temperature for 30 min and added to the plates (25uL per well) using a Multidrop Combi dispenser. Plates were left for 10 min at room temperature for stabilization and then read using a ViewLux.
# Assay type: toxicity, cell-based

>>> value_reported("O=C(CSc1nnc(-c2ccc3c(c2)OCO3)o1)N(Cc1ccco1)CC(F)(F)F")
"> 100 µM"
>>> value_reported("CN(Cc1ccccc1)Cc1nnnn1C1CCN(Cc2ccc(-n3ccnc3)cc2)CC1")
"> 100 µM"
>>> value_reported("O=C(Cc1ccc2c(c1)CCC2)Nc1nnc(-c2ccccn2)[nH]1")
"50.1 µM"
>>> value_reported("Cc1nc2c(-c3nc(-c4ccccc4N)n[nH]3)cccn2c1C")
"15.8 µM"

Input line: State the recorded IC50 at 48 h for this entry: CCCC(=O)N(Cc1ccccn1)c1nc2ccccc2s1
Output line: > 100 µM

Input line: State the recorded IC50 at 48 h for this entry: O=C(Cn1cnc2c(-c3ccccc3)csc2c1=O)N1CCCCC1
Output line: > 100 µM
